Values compiled from patent US20200361987A1.

Assay: Rat PK study, intravenous administration, plasma
Format: in vivo
Conditions: intravenous 1 mg/kg, read-out: Cl_obs
Square brackets hold non-standard residues; d marks the D form. Peptide text beside a SMILES is read from it. Dmt = Cc1cc(O)cc(C)c1C[C@H](N)C(=O)O
property-label: clearance (mL/min/kg)
Reply with just the number (in mL/min/kg).

Example compounds with recorded clearance:
compound | property-label | reported-value
Cc1cc(O)cc(C)c1C[C@H](NC(=O)[C@H](N)CCCNC(=N)N)C(=O)N[C@@H](CCCCN)C(=O)N[C@@H](Cc1ccccc1)C(N)=O [Example 11 non-deuterated] (H-[dR][Dmt]KF-NH2) | clearance | 7.97
[2H]C([2H])(CN)C([2H])([2H])C[C@H](NC(=O)[C@H](Cc1c(C)cc(O)cc1C)NC(=O)[C@H](N)CCCNC(=N)N)C(=O)N[C@@H](Cc1ccccc1)C(N)=O | clearance | 5.7
[2H]C([2H])(N)C([2H])([2H])C([2H])([2H])C([2H])([2H])[C@H](NC(=O)[C@H](Cc1ccccc1)NC(=O)[C@@H](CCCNC(=N)N)NC(=O)[C@@H](N)Cc1ccccc1)C(N)=O | clearance | 7.24

Attention now turns to another entry.
For N=C(N)NCCC[C@@H](NC(=O)[C@@H](N)Cc1ccccc1)C(=O)N[C@@H](Cc1ccccc1)C(=O)N[C@@H](CCCCN)C(N)=O [Example 1 non-deuterated, Phe-D-Arg-Phe-Lys-NH2, reference compound] (H-F[dR]FK-NH2) the compound record lists clearance as 8.55

----------
# reported Cmax; entries follow
Assay: Rat PK study, intravenous administration, plasma
Type: in vivo
Conditions: intravenous 1 mg/kg
Square brackets hold non-standard residues; d marks the D form. Peptide text beside a SMILES is read from it. Dmt = Cc1cc(O)cc(C)c1C[C@H](N)C(=O)O
Reply with just the number (in ng/mL).

Example compounds with recorded Cmax:
compound | Cmax [ng/mL]
N=C(N)NCCC[C@@H](NC(=O)[C@@H](N)Cc1ccccc1)C(=O)N[C@@H](Cc1ccccc1)C(=O)N[C@@H](CCCCN)C(N)=O [Example 1 non-deuterated, Phe-D-Arg-Phe-Lys-NH2, reference compound] (H-F[dR]FK-NH2) | 3200
[2H]C([2H])(CN)C([2H])([2H])C[C@H](NC(=O)[C@H](Cc1c(C)cc(O)cc1C)NC(=O)[C@H](N)CCCNC(=N)N)C(=O)N[C@@H](Cc1ccccc1)C(N)=O [Example 11, D-Arg-DMT-(4,4,5,5-d4)-Lys-Phe-NH2] | 4680
Cc1cc(O)cc(C)c1C[C@H](NC(=O)[C@H](N)CCCNC(=N)N)C(=O)N[C@@H](CCCCN)C(=O)N[C@@H](Cc1ccccc1)C(N)=O [Example 11 non-deuterated] (H-[dR][Dmt]KF-NH2) | 2930

Attention now turns to another entry.
For [2H]C([2H])(N)C([2H])([2H])C([2H])([2H])C([2H])([2H])[C@H](NC(=O)[C@H](Cc1ccccc1)NC(=O)[C@@H](CCCNC(=N)N)NC(=O)[C@@H](N)Cc1ccccc1)C(N)=O [Example 1] the compound record lists Cmax as 4300

----------
# reported AUC(0-inf); entries follow
Assay: Rat PK study, intravenous administration, plasma
Type: in vivo
Details: intravenous 1 mg/kg, read-out: AUCINF_obs
Square brackets hold non-standard residues; d marks the D form. Peptide text beside a SMILES is read from it. Dmt = Cc1cc(O)cc(C)c1C[C@H](N)C(=O)O
Reply with just the number (in ng·h/mL).

For [2H]C([2H])(N)C([2H])([2H])C([2H])([2H])C([2H])([2H])[C@H](NC(=O)[C@H](Cc1ccccc1)NC(=O)[C@@H](CCCNC(=N)N)NC(=O)[C@@H](N)Cc1ccccc1)C(N)=O [Example 1] the compound record lists AUC(0-inf) as 2310

For Cc1cc(O)cc(C)c1C[C@H](NC(=O)[C@H](N)CCCNC(=N)N)C(=O)N[C@@H](CCCCN)C(=O)N[C@@H](Cc1ccccc1)C(N)=O [Example 11 non-deuterated] (H-[dR][Dmt]KF-NH2) the compound record lists AUC(0-inf) as 2120

For N=C(N)NCCC[C@@H](NC(=O)[C@@H](N)Cc1ccccc1)C(=O)N[C@@H](Cc1ccccc1)C(=O)N[C@@H](CCCCN)C(N)=O [Example 1 non-deuterated, Phe-D-Arg-Phe-Lys-NH2, reference compound] (H-F[dR]FK-NH2) the compound record lists AUC(0-inf) as 1960

For [2H]C([2H])(CN)C([2H])([2H])C[C@H](NC(=O)[C@H](Cc1c(C)cc(O)cc1C)NC(=O)[C@H](N)CCCNC(=N)N)C(=O)N[C@@H](Cc1ccccc1)C(N)=O [Example 11, D-Arg-DMT-(4,4,5,5-d4)-Lys-Phe-NH2] the compound record lists AUC(0-inf) as 2940
